The reported numbers originate from patent US8686048B2.

target: h-DHODH (Homo sapiens, UniProt Q02127); construct: endogenous in cells; host or cells: U937 cells (membrane fraction, solubilised with 1% octyl glucoside); assay: Dihydro-orotate dehydrogenase inhibition assay (U937 membrane preparations, DCIP reduction); type: biochemical; conditions: U937 membrane preparation
Sequence (Q02127 whole entry): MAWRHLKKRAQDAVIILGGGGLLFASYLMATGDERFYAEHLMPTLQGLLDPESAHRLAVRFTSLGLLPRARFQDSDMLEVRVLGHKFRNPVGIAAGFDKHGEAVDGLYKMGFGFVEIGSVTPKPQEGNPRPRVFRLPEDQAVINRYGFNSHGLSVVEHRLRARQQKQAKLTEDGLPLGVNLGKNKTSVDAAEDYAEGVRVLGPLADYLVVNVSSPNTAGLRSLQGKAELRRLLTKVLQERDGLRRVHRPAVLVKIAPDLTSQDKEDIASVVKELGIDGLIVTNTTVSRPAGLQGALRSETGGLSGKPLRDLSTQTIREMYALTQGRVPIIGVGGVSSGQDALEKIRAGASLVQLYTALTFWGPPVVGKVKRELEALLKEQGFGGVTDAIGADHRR
pIC50: −log10 of the molar value.
Decide by pIC50: equal to or exceeding 7 means Met, less means Not met.

[
  {
    "Molecule": "CCCCOc1cccc(-c2cc(F)c(NC(=O)c3ccccc3C(=O)O)c(Cl)c2)c1 [Example 29]",
    "Class": "Met"
  },
  {
    "Molecule": "CCSc1cccc(-c2cc(F)c(NC(=O)c3ccccc3C(=O)O)c(F)c2)c1 [Example 71]",
    "Class": "Met"
  },
  {
    "Molecule": "O=C(O)c1ccccc1C(=O)Nc1c(F)cc(-c2cccc(OC(F)(F)F)c2)cc1Cl [Example 39]",
    "Class": "Not met"
  },
  {
    "Molecule": "CCOc1cccc(-c2cc(F)c(NC(=O)c3ccccc3C(=O)O)c(F)c2)c1 [Example 5]",
    "Class": "Met"
  },
  {
    "Molecule": "CCc1c[nH]c2ccc(-c3cc(F)c(NC(=O)c4ccccc4C(=O)O)c(F)c3)cc12 [Example 75]",
    "Class": "Met"
  }
]

* * *

target: h-DHODH (Homo sapiens, UniProt Q02127); construct: endogenous in cells; host or cells: U937 cells (membrane fraction, solubilised with 1% octyl glucoside); assay: Dihydro-orotate dehydrogenase inhibition assay (U937 membrane preparations, DCIP reduction); assay type: biochemical; details: 1 uM; U937 membrane preparation

[
  {
    "Compound": "O=C(O)c1ccccc1C(=O)Nc1c(F)cc(-c2cccc(OC(F)F)c2)cc1F [Example 43]",
    "Value units": "%",
    "inhibition at 1 µM": 58.2
  },
  {
    "Compound": "CCCCOc1cccc(-c2c(F)c(F)c(NC(=O)c3ccccc3C(=O)O)c(F)c2F)c1 [Example 91]",
    "Value units": "%",
    "inhibition at 1 µM": 42.4
  },
  {
    "Compound": "CCOc1cccc(-c2cc(Cl)c(NC(=O)c3ccccc3C(=O)O)c(Cl)c2)c1 [Example 21]",
    "Value units": "%",
    "inhibition at 1 µM": 56.4
  },
  {
    "Compound": "COc1cccc(-c2cc(Cl)c(NC(=O)c3ccccc3C(=O)O)c(Cl)c2)c1 [Example 18]",
    "Value units": "%",
    "inhibition at 1 µM": 62.2
  },
  {
    "Compound": "CC(C)Oc1cccc(-c2cc(F)c(NC(=O)c3ccccc3C(=O)O)c(F)c2)c1 [Example 25]",
    "Value units": "%",
    "inhibition at 1 µM": 60.2
  }
]

* * *

target: h-DHODH (Homo sapiens); construct: endogenous in cells; host or cells: U937 cells (membrane fraction, solubilised with 1% octyl glucoside); assay: Dihydro-orotate dehydrogenase inhibition assay (U937 membrane preparations, DCIP reduction); type: biochemical; settings: 1 uM; U937 membrane preparation

[
  {
    "Mol": "O=C(O)c1cc(Cl)c(Cl)cc1C(=O)Nc1c(F)cc(-c2ccccc2Cl)cc1Cl",
    "System": "h-DHODH (Homo sapiens)",
    "inhibition at 1 µM [%]": 82.9
  },
  {
    "Mol": "O=C(O)c1ccccc1C(=O)Nc1c(F)cc(-c2ccc3c(c2)OCO3)cc1F",
    "System": "h-DHODH (Homo sapiens)",
    "inhibition at 1 µM [%]": 55.2
  },
  {
    "Mol": "CCc1cccc(-c2cc(F)c(NC(=O)c3ccccc3C(=O)O)c(Cl)c2)c1",
    "System": "h-DHODH (Homo sapiens)",
    "inhibition at 1 µM [%]": 71.2
  },
  {
    "Mol": "O=C(O)c1ccccc1C(=O)Nc1c(F)cc(-c2ccccc2Cl)cc1F",
    "System": "h-DHODH (Homo sapiens)",
    "inhibition at 1 µM [%]": 85.8
  },
  {
    "Mol": "CCOc1cccc(-c2cc(F)c(NC(=O)c3cc(Cl)c(Cl)cc3C(=O)O)c(F)c2)c1",
    "System": "h-DHODH (Homo sapiens)",
    "inhibition at 1 µM [%]": 50.3
  },
  {
    "Mol": "CCOc1cccc(-c2cc(F)c(NC(=O)c3cc(Cl)c(Cl)cc3C(=O)O)c(Cl)c2)c1",
    "System": "h-DHODH (Homo sapiens)",
    "inhibition at 1 µM [%]": 52.2
  },
  {
    "Mol": "CCCOc1cccc(-c2cc(F)c(NC(=O)c3ccccc3C(=O)O)c(F)c2)c1",
    "System": "h-DHODH (Homo sapiens)",
    "inhibition at 1 µM [%]": 85.3
  },
  {
    "Mol": "O=C(O)c1ccccc1C(=O)Nc1c(F)cc(-c2cccc(OC3CCCC3)c2)cc1Cl",
    "System": "h-DHODH (Homo sapiens)",
    "inhibition at 1 µM [%]": 76.9
  },
  {
    "Mol": "O=C(O)c1nccnc1C(=O)Nc1c(F)cc(-c2cccc(OCc3ccccc3)c2)cc1F",
    "System": "h-DHODH (Homo sapiens)",
    "inhibition at 1 µM [%]": 10.3
  },
  {
    "Mol": "CCCCOc1cccc(-c2cc(F)c(NC(=O)c3ccccc3C(=O)O)c(Cl)c2)c1",
    "System": "h-DHODH (Homo sapiens)",
    "inhibition at 1 µM [%]": 94
  },
  {
    "Mol": "COc1cccc(-c2cc(F)c(NC(=O)c3ccccc3S(=O)(=O)O)c(F)c2)c1",
    "System": "h-DHODH (Homo sapiens)",
    "inhibition at 1 µM [%]": 12.2
  },
  {
    "Mol": "O=C(O)c1ccccc1C(=O)Nc1ccc(-c2ccccc2F)cc1OC(F)(F)F",
    "System": "h-DHODH (Homo sapiens)",
    "inhibition at 1 µM [%]": 47.2
  },
  {
    "Mol": "O=C(O)c1ccccc1C(=O)Nc1c(F)cc(-c2ccc3c(c2)CCO3)cc1F",
    "System": "h-DHODH (Homo sapiens)",
    "inhibition at 1 µM [%]": 12.8
  },
  {
    "Mol": "O=C(O)c1ccccc1C(=O)Nc1c(F)cc(-c2ccccc2F)cc1F",
    "System": "h-DHODH (Homo sapiens)",
    "inhibition at 1 µM [%]": 58.9
  },
  {
    "Mol": "O=C(O)c1ccccc1C(=O)Nc1ccc(-c2cccc(OC3CC3)c2)cc1",
    "System": "h-DHODH (Homo sapiens)",
    "inhibition at 1 µM [%]": 1.49
  },
  {
    "Mol": "Cc1n[nH]c2ccc(-c3cc(F)c(NC(=O)c4ccccc4C(=O)O)c(F)c3)cc12",
    "System": "h-DHODH (Homo sapiens)",
    "inhibition at 1 µM [%]": 23.4
  },
  {
    "Mol": "O=C(O)c1ccccc1C(=O)Nc1ccc(-c2cccc(OC(F)(F)F)c2)cc1F",
    "System": "h-DHODH (Homo sapiens)",
    "inhibition at 1 µM [%]": 41.8
  },
  {
    "Mol": "CC(C)COc1cccc(-c2cc(F)c(NC(=O)c3ccccc3C(=O)O)c(Cl)c2)c1",
    "System": "h-DHODH (Homo sapiens)",
    "inhibition at 1 µM [%]": 73.5
  },
  {
    "Mol": "COc1ccc(Cl)c(-c2cc(F)c(NC(=O)c3ccccc3C(=O)O)c(Cl)c2)c1",
    "System": "h-DHODH (Homo sapiens)",
    "inhibition at 1 µM [%]": 68.1
  },
  {
    "Mol": "COc1cccc(-c2cc(F)c(NC(=O)c3ccccc3C(=O)O)c(F)c2)c1",
    "System": "h-DHODH (Homo sapiens)",
    "inhibition at 1 µM [%]": 53.3
  }
]
